Molecular target: ent-kaurene oxidase CYP701A6 (Oryza sativa subsp. japonica, UniProt Q5Z5R4)
Sequence (Q5Z5R4 whole entry): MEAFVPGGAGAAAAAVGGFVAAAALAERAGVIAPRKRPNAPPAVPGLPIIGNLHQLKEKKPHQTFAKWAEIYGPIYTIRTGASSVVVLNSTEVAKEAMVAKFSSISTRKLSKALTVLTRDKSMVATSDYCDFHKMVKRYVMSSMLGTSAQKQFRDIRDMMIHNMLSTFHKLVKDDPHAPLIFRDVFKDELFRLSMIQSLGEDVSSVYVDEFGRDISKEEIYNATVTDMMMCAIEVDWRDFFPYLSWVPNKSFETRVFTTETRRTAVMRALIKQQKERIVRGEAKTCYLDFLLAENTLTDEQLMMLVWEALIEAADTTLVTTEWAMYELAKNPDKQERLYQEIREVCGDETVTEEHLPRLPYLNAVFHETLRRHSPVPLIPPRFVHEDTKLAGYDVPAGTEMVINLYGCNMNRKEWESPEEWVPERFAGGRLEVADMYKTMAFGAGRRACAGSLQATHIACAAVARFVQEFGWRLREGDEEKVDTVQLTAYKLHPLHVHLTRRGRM
Test: Ent-kaurene oxidase CYP701A6 inhibition test
Format: biochemical
Conditions: CYP701A6 + NADPH-P450 reductase ATR2, substrate ent-kaurene, 30° C. 30 minutes; IC50 calculated from two concentrations
Procedure: To a 1.5 mL microtube, 8 μL of an aqueous solution of 500 μM ent-kaurene as a substrate in 45% cyclodextrin and 8μL of a solution of the sample in dimethylformamide were put. […] The CYP701A6 inhibition rate of the samples was calculated in accordance with the following formula (4). Note that the peak area of ent-kaurene acid was calculated from the peak area of m/z 273 and that ent-kaurene acid was identified from the area ratio of m/z 257, 213. […]
Quantity: potency estimated from few doses (nM)

Reference set, count: 2
{"Compound": "CCCCOCCOCCOCc1cn(-c2ccc(/C=C(\\C(O)C(C)(C)C)n3cncn3)cc2)nn1 (single isomer, unassigned) [Comparative Example 1 (+) Form, reference compound]", "potency estimated from few doses / nM": 1300}
{"Compound": "CCCCOCCOCCOCC#Cc1ccc(/C=C(\\C(O)C(C)(C)C)n2cncn2)cc1 (single isomer, unassigned) [Example 4 (−) Form]", "potency estimated from few doses / nM": 770}

P. CCCCOCCOCCOCC#Cc1cccc(/C=C(\C(O)C(C)(C)C)n2cncn2)c1 (single isomer, unassigned) [Example 2 (−) Form]
Q. COCCOCCOCCOCC#Cc1cccc(/C=C(\C(O)C(C)(C)C)n2cncn2)c1 (single isomer, unassigned) [Example 1 (+) Form]
R. COCCOCCOCCOCC#Cc1ccc(/C=C(\C(O)C(C)(C)C)n2cncn2)cc1 (single isomer, unassigned) [Example 3 (−) Form]
S. COCCOCCOCCOCC#Cc1ccc(/C=C(\C(O)C(C)(C)C)n2cncn2)cc1 (single isomer, unassigned) [Example 3 (+) Form]
T. COCCOCCOCCOCC#Cc1cccc(/C=C(\[C@@H](O)C(C)(C)C)n2cncn2)c1 [Example 1 (−) Form]
Input line: Order the 5 compounds from highest to lowest potency estimated from few doses. Your answer should be the labels, listed in the requested order.
Output line: S, R, Q, T, P
